# Tested on: Candida tropicalis
# TEST PROTOCOL: Antifungal activity against Candida tropicalis ATCC 13803 after 24 hrs by two fold serial dilution method
# Assay type: functional
# TEST CONDITIONS: ATCC 13803, 24 h
PARAMETER MEASURED: MIC (µg/mL)

INSERT INTO assay_data (compound_structure, experimental_target, units, numeric_readout) VALUES
  ('CCCCOc1c(OC)ccc2c(Cc3ccc(C(C)C)cc3)c3[n+](cc12)CCc1cc2c(cc1-3)OCO2.[Cl-]', 'Candida tropicalis', 'µg/mL', 0.25);

a: C=CCOc1c(OC)ccc2c(Cc3ccc(C(C)C)cc3)c3[n+](cc12)CCc1cc2c(cc1-3)OCO2.[Cl-]
b: CCCC(=O)Oc1c(OC)ccc2c(Cc3ccc(C(C)C)cc3)c3[n+](cc12)CCc1cc2c(cc1-3)OCO2.[Cl-]
c: C/C=C/COc1c(OC)ccc2c(Cc3ccc(C(C)C)cc3)c3[n+](cc12)CCc1cc2c(cc1-3)OCO2.[Cl-]
Ask: Falling order of MIC, please. Output spec: a listing of the labels in the requested order.
Result: b, a, c
